B1: DLC1 (parent)
chain: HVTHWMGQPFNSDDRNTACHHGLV

# Variants of: B1
# assay.details: protein stability index of a GFP-peptide fusion (GPS, HEK-293T) (PSI 1-6); higher = more stable;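 note: lentivirally expressed fusions sorted by FACS into six bins by GFP to DsRed ratio, PSI derived from sequencing read proportions per bin multiplied by bin number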
# test.settings: c terminus: a fixed tail appended
property.name: protein stability index

residue_string="HVTFWMGQPFNSDDRNTACHHGLV [H4F]" value_reported=1.72
residue_string="HVTHWMGQPFNSFDRNTACHHGLV [D13F]" value_reported=1.81
residue_string="HVTYWMGQPFNSDDRNTACHHGLV [H4Y]" value_reported=1.44
residue_string="HVTHWMGQCFNSDDRNTACHHGLV [P9C]" value_reported=1.75
residue_string="HVTHWMGQPFNSDPRNTACHHGLV [D14P]" value_reported=2.16
residue_string="HVTHWMGQPFNSDDNNTACHHGLV [R15N]" value_reported=2.38
residue_string="HVTHWMGQPFNSDDRNTACHHGLR [V24R]" value_reported=2.22
residue_string="HVTHWMGQPFNSDDMNTACHHGLV [R15M]" value_reported=1.83
residue_string="HVYHWMGQPFNSDDRNTACHHGLV [T3Y]" value_reported=1.91
residue_string="HVTHWMGQPFNSQDRNTACHHGLV [D13Q]" value_reported=1.62
residue_string="HVTHWMGQPFNSKDRNTACHHGLV [D13K]" value_reported=2.32
residue_string="HVTHWMFQPFNSDDRNTACHHGLV [G7F]" value_reported=2.45
residue_string="HVTHWMGQPFNSDDRNTACVHGLV [H20V]" value_reported=2.34
residue_string="HVTHWMGQPFNSDDRNTNCHHGLV [A18N]" value_reported=2.44
residue_string="HVTHWMGNPFNSDDRNTACHHGLV [Q8N]" value_reported=1.92
residue_string="HVTHWMGQPFNSDDRNTACHHGLP [V24P]" value_reported=2.22
residue_string="HVTHWMGSPFNSDDRNTACHHGLV [Q8S]" value_reported=2.15
residue_string="HVTHWDGQPFNSDDRNTACHHGLV [M6D]" value_reported=3.03
residue_string="HVTHWMGQPFNSDDRNHACHHGLV [T17H]" value_reported=2.23
residue_string="HVTHWMGQPFNSDDRNTACHHGSV [L23S]" value_reported=2.24
residue_string="HVTHWMWQPFNSDDRNTACHHGLV [G7W]" value_reported=3.07
residue_string="HVTHWMGQPFNSDWRNTACHHGLV [D14W]" value_reported=1.65
residue_string="HVTHTMGQPFNSDDRNTACHHGLV [W5T]" value_reported=3.43
residue_string="HVTHWMGQPFNSDDRNTACHHGDV [L23D]" value_reported=2.84
residue_string="HVTHWMGQPFNSDDRNTVCHHGLV [A18V]" value_reported=2.33
residue_string="HVTHWMNQPFNSDDRNTACHHGLV [G7N]" value_reported=2.23
residue_string="HVTHWMGQPFNSDDRGTACHHGLV [N16G]" value_reported=1.97
residue_string="MVTHWMGQPFNSDDRNTACHHGLV [H1M]" value_reported=2.5
residue_string="HVTHWMGQPFNSDDRNKACHHGLV [T17K]" value_reported=2.01
residue_string="HVTHWMGQPFNSDDRNTACHHFLV [G22F]" value_reported=1.57
residue_string="HVTHWMGQPFNSDDRNTACHHGPV [L23P]" value_reported=2.17
residue_string="HVTHWMGQPFNSDDRNTDCHHGLV [A18D]" value_reported=2.69
residue_string="HVTHAMGQPFNSDDRNTACHHGLV [W5A]" value_reported=3.26
residue_string="HVTHWMGQPHNSDDRNTACHHGLV [F10H]" value_reported=2.05
residue_string="HVTHWMGQPFNSDDQNTACHHGLV [R15Q]" value_reported=2.01
residue_string="HVTHWMGWPFNSDDRNTACHHGLV [Q8W]" value_reported=1.55
residue_string="HVTHWMGQPFNSDDRNTACHHGCV [L23C]" value_reported=1.99
residue_string="HVTHWMDQPFNSDDRNTACHHGLV [G7D]" value_reported=2.46
residue_string="HVTHWMGQPFMSDDRNTACHHGLV [N11M]" value_reported=2.07
residue_string="HVTHWMGQPFNSDDRNCACHHGLV [T17C]" value_reported=1.66
residue_string="HVRHWMGQPFNSDDRNTACHHGLV [T3R]" value_reported=1.95
residue_string="VVTHWMGQPFNSDDRNTACHHGLV [H1V]" value_reported=2.51
residue_string="HVTHWMGQPFNSDDRNTACHHGLW [V24W]" value_reported=2.09
residue_string="HVQHWMGQPFNSDDRNTACHHGLV [T3Q]" value_reported=1.93
residue_string="HVTHWMGQPFNSDDRNDACHHGLV [T17D]" value_reported=2.65
residue_string="HRTHWMGQPFNSDDRNTACHHGLV [V2R]" value_reported=3.05
residue_string="HVKHWMGQPFNSDDRNTACHHGLV [T3K]" value_reported=1.91
residue_string="HVTRWMGQPFNSDDRNTACHHGLV [H4R]" value_reported=1.97
residue_string="HVTHWMGQPFNSDDRNTASHHGLV [C19S]" value_reported=2.41
residue_string="HVTHDMGQPFNSDDRNTACHHGLV [W5D]" value_reported=4.27
residue_string="HVTHWMGQPFNSDDTNTACHHGLV [R15T]" value_reported=2.31
residue_string="HVEHWMGQPFNSDDRNTACHHGLV [T3E]" value_reported=2.38
residue_string="HVTHWMGQPFNSYDRNTACHHGLV [D13Y]" value_reported=2.26
residue_string="HVTHWMGQPFNSDMRNTACHHGLV [D14M]" value_reported=1.64
residue_string="HVTHWMGQPFNSDDRNTAYHHGLV [C19Y]" value_reported=1.8
residue_string="HVTHWMGQPFNSPDRNTACHHGLV [D13P]" value_reported=2.14
residue_string="LVTHWMGQPFNSDDRNTACHHGLV [H1L]" value_reported=2.14
residue_string="HVTHWMGQPFNSDDCNTACHHGLV [R15C]" value_reported=1.99
residue_string="HVTHWMGQPFNSDDRNTACHQGLV [H21Q]" value_reported=2.44
residue_string="HVTHWMGQPFNSNDRNTACHHGLV [D13N]" value_reported=2.11
residue_string="HVTHWMGQPFNSDDRNTACHHGQV [L23Q]" value_reported=2.38
residue_string="HVTHGMGQPFNSDDRNTACHHGLV [W5G]" value_reported=3.89
residue_string="HVTHWMGQPFNSDDENTACHHGLV [R15E]" value_reported=2.32
residue_string="HVTHWMGQPFNSDDRNTACHHGLH [V24H]" value_reported=2.28
residue_string="HVVHWMGQPFNSDDRNTACHHGLV [T3V]" value_reported=2.78
residue_string="HDTHWMGQPFNSDDRNTACHHGLV [V2D]" value_reported=3.76
residue_string="IVTHWMGQPFNSDDRNTACHHGLV [H1I]" value_reported=1.83
residue_string="HVTHWMGQPFNSDDRNLACHHGLV [T17L]" value_reported=1.68
residue_string="HVTHWMGQPFNSDDRNMACHHGLV [T17M]" value_reported=1.72
residue_string="HVTHWMGQPFNSDDRRTACHHGLV [N16R]" value_reported=2.16
residue_string="HVTHWMGQPFNSDDRNQACHHGLV [T17Q]" value_reported=2.38
residue_string="HVTHWMGQPFNSLDRNTACHHGLV [D13L]" value_reported=2.05
residue_string="HVTHWHGQPFNSDDRNTACHHGLV [M6H]" value_reported=2.34
residue_string="HVMHWMGQPFNSDDRNTACHHGLV [T3M]" value_reported=2.05
residue_string="HVTHWMGQPFNSDDRNTACHEGLV [H21E]" value_reported=2.51
residue_string="HVTHWGGQPFNSDDRNTACHHGLV [M6G]" value_reported=2.16
residue_string="HVTHWMGQPFNSDDRNTHCHHGLV [A18H]" value_reported=2.25
residue_string="HVTHWMGYPFNSDDRNTACHHGLV [Q8Y]" value_reported=1.74
residue_string="HVTHWMGQPFNSDDRNTYCHHGLV [A18Y]" value_reported=2.37
residue_string="HVTVWMGQPFNSDDRNTACHHGLV [H4V]" value_reported=2.08
residue_string="HVTHWMGQPFNPDDRNTACHHGLV [S12P]" value_reported=2.29
residue_string="HVTHWMGQPFNSDDRNTLCHHGLV [A18L]" value_reported=1.56
residue_string="HVTHWMGQPFNSDDRNTACHHGLA [V24A]" value_reported=2.31
residue_string="HVTHWMGQPCNSDDRNTACHHGLV [F10C]" value_reported=1.94
residue_string="HVTHWMGQPFNSDDRTTACHHGLV [N16T]" value_reported=1.99
residue_string="HVTHWMGQPFYSDDRNTACHHGLV [N11Y]" value_reported=2.26
residue_string="HVTHWMGQQFNSDDRNTACHHGLV [P9Q]" value_reported=2.4
residue_string="HVTHWMGQPFNSDDRNTACHHGLF [V24F]" value_reported=1.45
residue_string="HVTHWMGQPFNSDDRNTACEHGLV [H20E]" value_reported=2.44
residue_string="FVTHWMGQPFNSDDRNTACHHGLV [H1F]" value_reported=1.89
residue_string="HVTSWMGQPFNSDDRNTACHHGLV [H4S]" value_reported=2.64
